FYI, the data here is from PubChem BioAssay.

assay: E. coli acrAB mutant growth effects, primary screen, E. coli filamentation inducers, strain DRC39, OD650, 48 h (AID 1179);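 further: screen aims at cell division blockers that make cells filament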; details: E. coli DRC39 delta-acrAB growth, higher = more signal, called active from +8 up or from −8 down
Test readout: z-score

>  <Compound>
COCC(=C=CC[C@@H](O)c1ccccc1OCCO)CCO

>  <Endpoint result>
1.16

$$$$
>  <Compound>
C=C(/C(=C/C[C@H](OC(C)=O)c1ccc(OCCO)cc1)c1cnc2ccccc2c1)C(C)C

>  <Endpoint result>
-0.511

$$$$
>  <Compound>
O=C1C[C@]2(c3ccc([N+](=O)[O-])cc3)C(=O)N(CCN3CCOCC3)c3cc(CO)ccc3[C@H]2N1CC12CC3CC(CC(C3)C1)C2

>  <Endpoint result>
-0.0127

$$$$
>  <Compound>
COC(=O)[C@H](C)NC(=O)CCC1CC(OC(=O)NCc2ccc3c(c2)OCO3)CC2(CCCC(COC(=O)NCCOc3ccccc3)O2)O1 (stereo not given in full)

>  <Endpoint result>
-0.915

$$$$
>  <Compound>
COC(=O)[C@@H]1CCCN1C(=O)[C@@H](C)CO

>  <Endpoint result>
-2.18

$$$$
>  <Compound>
C[N+](C)(C)CCCCCCNC(=O)[C@@H]1C[C@@H]2C(=O)N3CCC[C@H]3C(=O)N2[C@@H]1c1cccc(OCCO)c1

>  <Endpoint result>
-0.514

$$$$
>  <Compound>
CC(=O)OC[C@H]1O[C@H](CCON=C[C@@H](C)[C@H](OCc2ccccc2)C(C)C)C=C[C@@H]1OC(C)=O

>  <Endpoint result>
-2.1

$$$$
>  <Compound>
COC(=O)[C@H](C)NC(=O)CCC1CC(OC(=O)NCc2cccc3ccccc23)CC2(CCCC(COC(=O)NCC3CCCCC3)O2)O1 (stereo not given in full)

>  <Endpoint result>
-0.399

$$$$
>  <Compound>
O=C(NN=C1C[C@@H](O)[C@@H](O)[C@@H]2[C@@H]3C(=O)N(c4cccc(Oc5ccccc5)c4)C(=O)[C@@H]3CC[C@@H]12)OCc1ccccc1

>  <Endpoint result>
-0.192

$$$$
>  <Compound>
CC(CCN1CCc2nc(-c3ccccc3)c(-c3ccccc3)cc2C1)=NOC(C)CN1CCCCc2nc(C)c(C)cc21 (stereo not given)

>  <Endpoint result>
-0.702

$$$$
>  <Compound>
CN1C(=O)C2C(C1=O)C1C=C(CCCO)C2C(c2ccc(CN3CCCC3)cc2)N1C (stereo not given)

>  <Endpoint result>
-0.296

$$$$
>  <Compound>
COC(=O)[C@@H]1N=C(c2ccc(OCCCO)cc2)O[C@@H]1c1ccccc1N=[N+]=[N-]

>  <Endpoint result>
0.995

$$$$
>  <Compound>
COCCOC(=O)N1C(=O)[C@@]2(c3cc(C#CC4(O)CCCCCC4)ccc31)[C@H](C(=O)N1CCN(c3ncccn3)CC1)[C@H]1C(=O)O[C@H](c3ccccc3)[C@H](c3ccccc3)N1[C@@H]2c1ccc(OCCO)cc1

>  <Endpoint result>
0.293

$$$$
>  <Compound>
COc1ccc(O[C@H]2C=C[C@@H](c3ccccc3)O[C@@H]2COC(=O)CCC(C)=NOCC[C@@H]2C=C[C@H](OC(C)=O)[C@@H](COC(C)=O)O2)cc1

>  <Endpoint result>
-0.0862

$$$$
>  <Compound>
COC(=O)CC1OC1[C@H](C)[C@@H](OC)C(C)C (stereo not given in full)

>  <Endpoint result>
0.293

$$$$
